protocol notes: Ocular biodistribution of PS after topical eye drops in New Zealand white rabbits (HPLC)
Type: in vivo, rabbit
test parameters: New Zealand white, rabbit, conjunctiva, topical, 5.4 % PS, 6 h; topical, Poloxamer 407 in-situ gel, 5.4% PS; read-out: PS in Conjunctiva
Protocol: Results: The above PS formulation was administered topically as eye drops to the eyes of New Zealand white rabbits. The levels of PS in ocular tissues 1 h and 3 h later were determined by HPLC. The Table below summarizes the findings: Results: The above PS formulation was administered topically as eye drops to the eyes of New Zealand white rabbits. The levels of PS in ocular tissues at 2 h later were determined by HPLC. The table below summarizes the findings. […]
measured metric: concentration at 6 h (µM)
// units = µM; emit number, no label

Data request: So what's the measured concentration at 6 h for this one? CCOP(=O)(OCC)OCCCCOC(=O)CC1=C(C)/C(=C/c2ccc([S+](C)[O-])cc2)c2ccc(F)cc21 (stereo not shown)
Data returned: 10.7

====

protocol notes: Ocular biodistribution of PS after topical eye drops in New Zealand white rabbits (HPLC)
Assay type: in vivo, rabbit
test parameters: New Zealand white, rabbit, iris, topical, 5.4 % PS, 3 h; topical, Poloxamer 407 in-situ gel, 5.4% PS; read-out: PS in Iris
measured metric: concentration at 3 h (nM)
I only need the number, in nM, no unit after it.

Data request: Requested field: concentration at 3 h. Item: CCOP(=O)(OCC)OCCCCOC(=O)CC1=C(C)/C(=C/c2ccc([S+](C)[O-])cc2)c2ccc(F)cc21 (stereo not shown) [PS, phosphosulindac]
Data returned: 0

====

protocol notes: Ocular biodistribution of PS after topical eye drops in New Zealand white rabbits (HPLC)
Format: in vivo, rabbit
test parameters: New Zealand white, rabbit, retina, topical, 3 % PS, 5 h; topical, sodium alginate/Tween 80 in-situ gel, 3% PS; read-out: PS in Retina
measured metric: concentration at 5 h (nM)
Express your answer in nM, writing the number without its unit.

Data request: I am curious: what concentration at 5 h value has been reported for CCOP(=O)(OCC)OCCCCOC(=O)CC1=C(C)/C(=C/c2ccc([S+](C)[O-])cc2)c2ccc(F)cc21 (stereo not shown) ?
Data returned: 0

====

protocol notes: Ocular biodistribution of PS after topical eye drops in New Zealand white rabbits (HPLC)
Type: in vivo, rabbit
test parameters: New Zealand white, rabbit, vitreous body, topical, 3.5 % PS solution (eye drops), 1 h; topical eye drops, 3.5% PS solution in propylene glycol; read-out: PS in Vitreous body
Description: Results: The above PS formulation was administered topically as eye drops to the eyes of New Zealand white rabbits. The levels of PS in ocular tissues 1 h and 3 h later were determined by HPLC. The Table below summarizes the findings: Results: The above PS formulation was administered topically as eye drops to the eyes of New Zealand white rabbits. The levels of PS in ocular tissues at 2 h later were determined by HPLC. The table below summarizes the findings. […]
measured metric: concentration at 1 h (nM)
Please respond with the number in nM and leave the unit unwritten.

Data request: # query: concentration at 1 h of entry CCOP(=O)(OCC)OCCCCOC(=O)CC1=C(C)/C(=C/c2ccc([S+](C)[O-])cc2)c2ccc(F)cc21 (stereo not shown)
Data returned: 0

====

protocol notes: Ocular biodistribution of PS after topical eye drops in New Zealand white rabbits (HPLC)
Format: in vivo, rabbit
test parameters: New Zealand white, rabbit, iris, topical, 5.4 % PS, 6 h; topical, Poloxamer 407 in-situ gel, 5.4% PS; read-out: PS in Iris
measured metric: concentration at 6 h (nM)
Just the number please, in nM, no unit attached.

Data request: If you can, please state the reported concentration at 6 h value of CCOP(=O)(OCC)OCCCCOC(=O)CC1=C(C)/C(=C/c2ccc([S+](C)[O-])cc2)c2ccc(F)cc21 (stereo not shown) .
Data returned: 0
